# test.summary: Volume of distribution at steady state in CD-1 mouse at 2 mg/kg, iv administered as single dose measured upto 24 hrs by LC-MS/MS analysis
# Assay type: ADME, organism-based
# experimental.conditions: in vivo, read-out: Vdss
endpoint: Vd (L/kg)

>  <compound.structure.string>
COc1cccc2c1Sc1ccccc1C=C2OP(=O)([O-])OC1=Cc2ccccc2Sc2c(OC)cccc21.[Na+]

>  <endpoint>
Vd

>  <measured.number>
0.8

$$$$

[P] O=P([O-])(OC1=Cc2c(Cl)cccc2Sc2ccccc21)OC1=Cc2c(Cl)cccc2Sc2ccccc21.[Na+]
[Q] O=P([O-])(OC1=Cc2ccccc2Sc2ccccc21)OC1=Cc2ccccc2Sc2ccccc21.[Na+]
Hi there, can you help? I need to know whether P or Q has lower measured Vd. Output the label that corresponds to your choice. Q

---

# test.summary: MRT in CD-1 mouse at 5 mg/kg, po administered as single dose measured upto 24 hrs by LC-MS/MS analysis
# Format: ADME, organism-based
# experimental.conditions: in vivo
endpoint: MRT (h)

>  <compound.structure.string>
O=P([O-])(OC1=Cc2c(Cl)cccc2Sc2ccccc21)OC1=Cc2c(Cl)cccc2Sc2ccccc21.[Na+]

>  <MRT (h)>
7.09

$$$$

[1] O=P([O-])(OC1=Cc2ccccc2Sc2ccccc21)OC1=Cc2ccccc2Sc2ccccc21.[Na+]
[2] COc1cccc2c1Sc1ccccc1C=C2OP(=O)([O-])OC1=Cc2ccccc2Sc2c(OC)cccc21.[Na+]
[3] COc1cccc2c1Sc1cccc(F)c1C=C2OP(=O)([O-])OC1=Cc2c(F)cccc2Sc2c(OC)cccc21.[Na+]
Arrange these 3 compounds in increasing order of MRT. Dear reader, please state the labels in the requested order. 3, 1, 2

---

# test.summary: Clearance in CD-1 mouse at 2 mg/kg, iv administered as single dose measured upto 24 hrs by LC-MS/MS analysis
# Format: ADME, organism-based
# experimental.conditions: in vivo
endpoint: clearance (mL/min/kg)

>  <compound.structure.string>
COc1cccc2c1Sc1cccc(F)c1C=C2OP(=O)([O-])OC1=Cc2c(F)cccc2Sc2c(OC)cccc21.[Na+]

>  <measured.number>
4.33

$$$$
>  <compound.structure.string>
O=P([O-])(OC1=Cc2c(Cl)cccc2Sc2ccccc21)OC1=Cc2c(Cl)cccc2Sc2ccccc21.[Na+]

>  <measured.number>
20.3

$$$$

[A] COc1cccc2c1Sc1ccccc1C=C2OP(=O)([O-])OC1=Cc2ccccc2Sc2c(OC)cccc21.[Na+]
[B] O=P([O-])(OC1=Cc2ccccc2Sc2ccccc21)OC1=Cc2ccccc2Sc2ccccc21.[Na+]
Hi there, can you help? I need to know whether A or B has lower measured clearance. Output the label that corresponds to your choice. A

---

# test.summary: Half life in CD-1 mouse at 2 mg/kg, iv administered as single dose measured upto 24 hrs by LC-MS/MS analysis
# Assay type: ADME, organism-based
# experimental.conditions: in vivo
endpoint: half-life (h)

>  <compound.structure.string>
COc1cccc2c1Sc1cccc(F)c1C=C2OP(=O)([O-])OC1=Cc2c(F)cccc2Sc2c(OC)cccc21.[Na+]

>  <result.units>
h

>  <half-life>
5.75

$$$$
>  <compound.structure.string>
COc1cccc2c1Sc1ccccc1C=C2OP(=O)([O-])OC1=Cc2ccccc2Sc2c(OC)cccc21.[Na+]

>  <result.units>
h

>  <half-life>
5.59

$$$$

[I] O=P([O-])(OC1=Cc2c(Cl)cccc2Sc2ccccc21)OC1=Cc2c(Cl)cccc2Sc2ccccc21.[Na+]
[II] O=P([O-])(OC1=Cc2ccccc2Sc2ccccc21)OC1=Cc2ccccc2Sc2ccccc21.[Na+]
Hi there, can you help? I need to know whether I or II has lower measured half-life. Output the label that corresponds to your choice. II

---

# study.target: UniProt Q8CIM5
# Sequence (Q8CIM5 whole entry): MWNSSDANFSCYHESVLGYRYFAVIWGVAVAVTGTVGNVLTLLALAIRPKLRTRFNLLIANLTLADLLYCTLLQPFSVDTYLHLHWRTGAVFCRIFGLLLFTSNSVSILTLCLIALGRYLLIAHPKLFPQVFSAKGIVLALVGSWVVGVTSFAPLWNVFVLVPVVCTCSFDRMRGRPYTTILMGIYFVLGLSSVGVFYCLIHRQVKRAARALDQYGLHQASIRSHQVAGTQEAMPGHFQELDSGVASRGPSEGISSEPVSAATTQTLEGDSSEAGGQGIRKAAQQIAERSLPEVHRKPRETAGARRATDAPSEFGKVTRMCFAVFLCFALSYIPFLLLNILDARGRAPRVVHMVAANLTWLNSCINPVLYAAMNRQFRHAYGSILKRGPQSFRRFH
# test.summary: Antagonist activity at mouse GPR84 expressed in HEK293 cells assessed as reduction in 6-OAU induced intracellular calcium response preincubated for 10 mins followed by agonist addition and measured after 1 min by calcium mobilization assay
pIC50: −log10 of the molar value.
endpoint: pIC50

[I] O=P([O-])(OC1=Cc2c(Cl)cccc2Sc2ccccc21)OC1=Cc2c(Cl)cccc2Sc2ccccc21.[Na+]
[II] O=P([O-])(OC1=Cc2ccccc2Sc2ccccc21)OC1=Cc2ccccc2Sc2ccccc21.[Na+]
Which one would you say has the larger pIC50 value: I , or II ? Output the label that corresponds to your choice. I

---

# test.summary: AUC(0 to infinity) in CD-1 mouse at 2 mg/kg, iv administered as single dose measured upto 24 hrs by LC-MS/MS analysis
# Assay type: ADME, organism-based
# Parameters: time < 24 hrs, dose 2 mg/kg, route iv
# experimental.conditions: in vivo
endpoint: AUC(0-inf) (ng·h/mL)

>  <compound.structure.string>
O=P([O-])(OC1=Cc2c(Cl)cccc2Sc2ccccc21)OC1=Cc2c(Cl)cccc2Sc2ccccc21.[Na+]

>  <measured.number>
1710

$$$$

[A] COc1cccc2c1Sc1cccc(F)c1C=C2OP(=O)([O-])OC1=Cc2c(F)cccc2Sc2c(OC)cccc21.[Na+]
[B] COc1cccc2c1Sc1ccccc1C=C2OP(=O)([O-])OC1=Cc2ccccc2Sc2c(OC)cccc21.[Na+]
[C] O=P([O-])(OC1=Cc2ccccc2Sc2ccccc21)OC1=Cc2ccccc2Sc2ccccc21.[Na+]
Hello, I need these entries ordered by AUC(0-inf), highest reading first. Thanks! Dear reader, please state the labels in the requested order. A, B, C
(A: 7760 ng·h/mL, B: 4640 ng·h/mL, C: 1420 ng·h/mL)

---

# test.summary: Tmax in CD-1 mouse at 5 mg/kg, po administered as single dose measured upto 24 hrs by LC-MS/MS analysis
# Format: ADME, organism-based
# experimental.conditions: in vivo
endpoint: Tmax (h)

[I] O=P([O-])(OC1=Cc2ccccc2Sc2ccccc21)OC1=Cc2ccccc2Sc2ccccc21.[Na+]
[II] COc1cccc2c1Sc1ccccc1C=C2OP(=O)([O-])OC1=Cc2ccccc2Sc2c(OC)cccc21.[Na+]
[III] COc1cccc2c1Sc1cccc(F)c1C=C2OP(=O)([O-])OC1=Cc2c(F)cccc2Sc2c(OC)cccc21.[Na+]
[IV] O=P([O-])(OC1=Cc2c(Cl)cccc2Sc2ccccc21)OC1=Cc2c(Cl)cccc2Sc2ccccc21.[Na+]
List these items ordered by Tmax, big to small. Dear reader, please state the labels in the requested order. IV, I, II, III
(IV: 2.67 h, I: 1.67 h, II: 1 h, III: 0.42 h)

---

# test.summary: MRT in CD-1 mouse at 2 mg/kg, iv administered as single dose measured upto 24 hrs by LC-MS/MS analysis
# Type: ADME, organism-based
# experimental.conditions: in vivo
endpoint: MRT (h)

Observe how each entry below is paired with its result.
>  <compound.structure.string>
COc1cccc2c1Sc1cccc(F)c1C=C2OP(=O)([O-])OC1=Cc2c(F)cccc2Sc2c(OC)cccc21.[Na+]

>  <MRT (h)>
1.89

$$$$
>  <compound.structure.string>
O=P([O-])(OC1=Cc2c(Cl)cccc2Sc2ccccc21)OC1=Cc2c(Cl)cccc2Sc2ccccc21.[Na+]

>  <MRT (h)>
2.26

$$$$

[A] O=P([O-])(OC1=Cc2ccccc2Sc2ccccc21)OC1=Cc2ccccc2Sc2ccccc21.[Na+]
[B] COc1cccc2c1Sc1ccccc1C=C2OP(=O)([O-])OC1=Cc2ccccc2Sc2c(OC)cccc21.[Na+]
Hi there, can you help? I need to know whether A or B has lower measured MRT. Output the label that corresponds to your choice. A
(A: 0.932 h, B: 1.82 h)

---

# study.target: G-protein coupled receptor 84 (Homo sapiens, UniProt Q9NQS5)
# Sequence (Q9NQS5 whole entry): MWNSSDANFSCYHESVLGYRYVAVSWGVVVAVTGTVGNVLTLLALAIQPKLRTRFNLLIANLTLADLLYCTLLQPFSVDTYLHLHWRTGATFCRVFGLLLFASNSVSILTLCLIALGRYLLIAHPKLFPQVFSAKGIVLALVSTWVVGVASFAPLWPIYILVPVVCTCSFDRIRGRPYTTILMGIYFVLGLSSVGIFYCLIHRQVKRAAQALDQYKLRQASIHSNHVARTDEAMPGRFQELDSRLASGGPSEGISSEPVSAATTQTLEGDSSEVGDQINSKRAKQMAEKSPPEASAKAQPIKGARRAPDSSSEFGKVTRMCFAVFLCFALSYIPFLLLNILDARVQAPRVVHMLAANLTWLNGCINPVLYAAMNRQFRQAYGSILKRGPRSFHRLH
# test.summary: Antagonist activity at human GPR84 expressed in HEK293 cells co-expressing Galpha16 assessed as reduction in 6-OAU induced intracellular calcium response preincubated for 10 mins followed by agonist addition and measured after 1 min by calcium mobilization assay
pIC50: −log10 of the molar value.
endpoint: pIC50

[I] O=P(O)(CC1=Cc2ccccc2Sc2ccccc21)CC1=Cc2ccccc2Sc2ccccc21
[II] O=c1nc(OCC2COCCO2)cc2n1CCc1cc(OCc3ccccn3)ccc1-2 (stereo not given)
Which one would you say has the larger pIC50 value: I , or II ? Output the label that corresponds to your choice. II
(II: 6.15, I: 5.71)

---

# test.summary: AUC(0 to infinity) in CD-1 mouse at 5 mg/kg, po administered as single dose measured upto 24 hrs by LC-MS/MS analysis
# Format: ADME, organism-based
# Design: time < 24 hrs, dose 5 mg/kg, route po
# experimental.conditions: in vivo
endpoint: AUC(0-inf) (ng·h/mL)

>  <compound.structure.string>
O=P([O-])(OC1=Cc2c(Cl)cccc2Sc2ccccc21)OC1=Cc2c(Cl)cccc2Sc2ccccc21.[Na+]

>  <AUC(0-inf) (ng·h/mL)>
517

$$$$

[P] O=P([O-])(OC1=Cc2ccccc2Sc2ccccc21)OC1=Cc2ccccc2Sc2ccccc21.[Na+]
[Q] COc1cccc2c1Sc1ccccc1C=C2OP(=O)([O-])OC1=Cc2ccccc2Sc2c(OC)cccc21.[Na+]
Which one would you say has the larger AUC(0-inf) value: P , or Q ? Output the label that corresponds to your choice. P
(P: 562 ng·h/mL, Q: 236 ng·h/mL)
